Where do the numbers come from? From ChEMBL document CHEMBL1128471.

# Tested on: Canis familiaris
# experiment: Mean percent peak inhibition of histamine-stimulated gastric acid secretion in the heidenhain pouch dog following a single dose of 4 umol/kg through oral administration.
# Format: functional
# experimentalParameters: Canis lupus familiaris, Stomach
property: inhibition in vivo at 4 µmol/kg (%)
Use % as the unit, but write only the number.

Sample records with inhibition in vivo at 4 µmol/kg:
CCCC(=O)c1cnc2c(F)cccc2c1Nc1ccc(O)cc1C    17
CCCC(=O)c1cnc2c(OCCOC)cccc2c1Nc1ccccc1C    81
CCCC(=O)c1cnc2c(OC)cccc2c1Nc1c(C)cccc1C    75
Cc1cc(F)ccc1Nc1c(C(=O)C(C)C)cnc2c(OCCO)cccc12    75
CCCC(=O)c1cnc2c(OC)cccc2c1Nc1ccc(F)cc1C    64

inhibition in vivo at 4 µmol/kg measured on "CCCC(=O)c1cnc2c(OC)cccc2c1Nc1ccc(O)cc1C" = 46

inhibition in vivo at 4 µmol/kg measured on "CCCC(=O)c1cnc2c(OC)cccc2c1Nc1c(C)cc(O)cc1C" = 25

inhibition in vivo at 4 µmol/kg measured on "CCCC(=O)c1cnc2c(CO)cccc2c1Nc1ccccc1C" = 56

inhibition in vivo at 4 µmol/kg measured on "CCCC(=O)c1cnc2c(OC)cccc2c1Nc1ccc(OC(=O)C(C)C)cc1C" = 25

inhibition in vivo at 4 µmol/kg measured on "CCCC(=O)c1cnc2c(OC)cccc2c1Nc1ccccc1CC" = 85

inhibition in vivo at 4 µmol/kg measured on "Cc1ccccc1Nc1c(C(=O)C(C)C)cnc2c(OCCO)cccc12" = 54

====

# systemUnderTest: Potassium-transporting ATPase (Rattus norvegicus) (UniProt P09626+P18598)
# experiment: Inhibition of pentagastrin-stimulated gastric acid secretion at a single dose of 10 umol/kg.
# Type: functional
# experimentalParameters: Stomach
Classify as follows. Reported inhibition greater than or equal to 50%: YES. Reported inhibition below: NO.

Check out these entries, answers already filled in.
CCCC(=O)c1cnc2c(OCCCN(C)C)cccc2c1Nc1ccccc1C    NO
CCCC(=O)c1cnc2ccc(OC)cc2c1Nc1ccccc1C    YES

Request: Quick check: does "Cc1cc(F)ccc1Nc1c(C(=O)C(C)C)cnc2c(O)cccc12" have inhibition greater than or equal to 50%?
Response: NO

====

# systemUnderTest: Potassium-transporting ATPase (Rattus norvegicus) (UniProt P09626+P18598)
# experiment: Inhibition of pentagastrin-stimulated gastric acid secretion at a single dose of 10 umol/kg.
# Type: functional
# experimentalParameters: Stomach
Reported inhibition is given for each of the following molecules.
Use % as the unit, but write only the number.

Sample records with inhibition:
CCCC(=O)c1cnc2c(OC)cccc2c1Nc1cc(C)ccc1C    48
Cc1ccccc1Nc1c(C(=O)C(C)C)cnc2c(O)cccc12    48

inhibition measured on "CCCC(=O)c1cnc2c(OCCCN(C)Cc3ccccc3)cccc2c1Nc1ccccc1C" = 39

inhibition measured on "CCCC(=O)c1cnc2ccc(O)cc2c1Nc1ccccc1C" = 58

inhibition measured on "CCCC(=O)c1cnc2c(OC)cccc2c1Nc1c(OC)cc(OC)cc1OC" = 24

inhibition measured on "CCCC(=O)c1cnc2c(OC)cccc2c1Nc1ccccc1COC" = 43

inhibition measured on "CCCC(=O)c1cnc2c(C(N)=O)cccc2c1Nc1ccccc1C" = 39

inhibition measured on "CCCC(=O)c1cnc2c(OC)cccc2c1Nc1ccc(C)cc1C" = 59

inhibition measured on CCCC(=O)c1cnc2c(C3OC3CO)cccc2c1Nc1ccccc1C (stereo in doubt; 29a) = 56

inhibition measured on "CCCC(=O)c1cnc2c(OCCCC(=O)Nc3ccncc3)cccc2c1Nc1ccccc1C" = 46
